Molecular target: human DGAT1 (Homo sapiens, UniProt O75907)
Sequence (O75907 1-488): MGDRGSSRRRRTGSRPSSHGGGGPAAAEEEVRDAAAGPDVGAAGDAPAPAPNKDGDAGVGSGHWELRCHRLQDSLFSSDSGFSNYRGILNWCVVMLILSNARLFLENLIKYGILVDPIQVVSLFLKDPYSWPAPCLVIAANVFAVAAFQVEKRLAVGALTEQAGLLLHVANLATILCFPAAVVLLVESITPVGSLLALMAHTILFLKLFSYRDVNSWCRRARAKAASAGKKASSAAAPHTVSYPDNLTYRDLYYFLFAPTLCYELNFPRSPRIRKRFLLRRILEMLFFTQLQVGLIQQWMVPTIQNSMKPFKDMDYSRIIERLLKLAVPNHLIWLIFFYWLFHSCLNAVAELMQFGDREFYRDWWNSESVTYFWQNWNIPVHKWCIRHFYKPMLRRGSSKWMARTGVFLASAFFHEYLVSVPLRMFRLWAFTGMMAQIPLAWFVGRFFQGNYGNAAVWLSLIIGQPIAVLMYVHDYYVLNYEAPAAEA
Reported IC50 values for a set of compounds

In [3]: df
Out[3]:
                               smiles_input  metric_name  experimental_value
0  CCCc1c(C(=O)OCC)c(C(=O)OCC)c2c(-c3ccccc3)cc(N3CCC3)nn12         IC50            > 500 nM

Next up:
What measured IC50 goes with `CCCc1c(C(=O)OCC)c(C(=O)OCC)c2c(-c3ccccc3)cc(N3CCCC3)nn12` ?
< 500 nM

The measurements presented in this section are drawn from patent US7300932B2.
